The measured values listed here are drawn from patent US20230192660A1.

experimental.system: MERS Mpro (Middle East respiratory syndrome-related coronavirus)
Sequence (K9N7C7 3248-3553 limits assumed): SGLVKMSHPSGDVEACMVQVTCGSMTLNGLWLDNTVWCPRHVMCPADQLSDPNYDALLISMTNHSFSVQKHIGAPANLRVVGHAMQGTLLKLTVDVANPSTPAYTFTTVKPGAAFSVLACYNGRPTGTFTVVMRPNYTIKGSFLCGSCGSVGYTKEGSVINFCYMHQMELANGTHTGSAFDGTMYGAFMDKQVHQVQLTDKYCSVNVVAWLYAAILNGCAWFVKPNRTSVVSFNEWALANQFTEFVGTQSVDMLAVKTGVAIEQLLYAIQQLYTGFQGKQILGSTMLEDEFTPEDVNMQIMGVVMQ
protocol.text: biochemical
Reported IC50 values for a set of compounds
attribute.measured: IC50 (µM)

{"compound": "CNC(=O)C(=O)[C@H](C[C@@H]1CCNC1=O)NC(=O)[C@@H]1[C@@H]2[C@H](CN1C(=O)CCc1ccccc1)C2(C)C [ML102m]", "experimental.system": "MERS Mpro (Middle East respiratory syndrome-related coronavirus)", "result.value": 1.1}
{"compound": "CC(C)(C)[C@H](NC(=O)C12CC(C1)C2)C(=O)N1C[C@H]2[C@@H]([C@H]1C(=O)N[C@@H](C[C@@H]1CCNC1=O)C(=O)C(N)=O)C2(C)C", "experimental.system": "MERS Mpro (Middle East respiratory syndrome-related coronavirus)", "result.value": 0.19}
{"compound": "CC1(C)[C@@H]2[C@@H](C(=O)N[C@@H](C[C@@H]3CCNC3=O)C(=O)C(N)=O)N(C(=O)CCc3ccccc3)C[C@@H]21", "experimental.system": "MERS Mpro (Middle East respiratory syndrome-related coronavirus)", "result.value": 1.2}

###

protocol.text: in vitro
condition.parameters: human
Reported CC50 values for a set of compounds
attribute.measured: CC50

{"compound": "CC(C)(C)CC(=O)N[C@H](C(=O)N1C[C@H]2[C@@H]([C@H]1C(=O)NC(C[C@@H]1CCNC1=O)C(=O)C(N)=O)C2(C)C)C(C)(C)C (stereo partly drawn)", "result.value": "> 100 µM"}
{"compound": "CC(C)(C)[C@H](NC(=O)C12CC(C1)C2)C(=O)N1C[C@H]2[C@@H]([C@H]1C(=O)N[C@@H](C[C@@H]1CCNC1=O)C(=O)C(N)=O)C2(C)C", "result.value": "> 100 µM"}
{"compound": "CC1(C)[C@@H]2[C@@H](C(=O)N[C@@H](C[C@@H]3CCNC3=O)C(=O)C(N)=O)N(C(=O)CCc3ccccc3)C[C@@H]21", "result.value": "> 100 µM"}

###

protocol.text: physchem
condition.parameters: aqueous buffer, kinetic from dmso stock
Reported solubility kinetic values for a set of compounds

{"smiles.representation": "CC(C)(C)[C@H](NC(=O)C12CC(C1)C2)C(=O)N1C[C@H]2[C@@H]([C@H]1C(=O)N[C@@H](C[C@@H]1CCNC1=O)C(=O)C(N)=O)C2(C)C", "value.unit": "µM", "measurement.qualifier": ">", "solubility kinetic": 100}
{"smiles.representation": "CC1(C)[C@@H]2[C@@H](C(=O)N[C@@H](C[C@@H]3CCNC3=O)C(=O)C(N)=O)N(C(=O)CCc3ccccc3)C[C@@H]21", "value.unit": "µM", "measurement.qualifier": "=", "solubility kinetic": 83}
{"smiles.representation": "COc1cccc2[nH]c(C(=O)N3C[C@H]4[C@@H]([C@H]3C(=O)N[C@@H](C[C@@H]3CCNC3=O)C(=O)C(N)=O)C4(C)C)cc12", "value.unit": "µM", "measurement.qualifier": "=", "solubility kinetic": 80}

###

{"compound": "CC1(C)[C@@H]2[C@@H](C(=O)N[C@@H](C[C@@H]3CCNC3=O)C(=O)C(N)=O)N(C(=O)CCc3ccccc3)C[C@@H]21", "Plasma Stability Human T1/2": "∞"}
{"compound": "CC1(C)[C@@H]2[C@@H](C(=O)NC(C[C@@H]3CCNC3=O)C(=O)C(N)=O)N(C(=O)CNc3c(F)cc(F)cc3F)C[C@@H]21 (some centres unmarked)", "Plasma Stability Human T1/2": "∞"}
{"compound": "CC(C)C[C@H](NC(=O)OCc1ccccc1)C(=O)N[C@@H](CC1CCNC1=O)C(O)S(=O)(=O)[O-].[Na+] (some centres unmarked) [GC-376, reference compound]", "Plasma Stability Human T1/2": "1.58 h"}
{"compound": "CC(C)(C)NC(=O)N[C@H](C(=O)N1C[C@H]2[C@@H]([C@H]1C(=O)N[C@@H](C[C@@H]1CCNC1=O)C(=O)C(N)=O)C2(C)C)C(C)(C)C", "Plasma Stability Human T1/2": "1.82 h"}
{"compound": "COc1cccc2[nH]c(C(=O)N3C[C@H]4[C@@H]([C@H]3C(=O)N[C@@H](C[C@@H]3CCNC3=O)C(=O)C(N)=O)C4(C)C)cc12", "Plasma Stability Human T1/2": "∞"}
